src = patent US9340577B2

Target: A2.1 HLA molecules (Homo sapiens, UniProt P04439, D140Y/D185E/D98H/E176V/E277Q/G131W/G231S/I119V/I121R/I166T/I218V/L300P/L318F/N151K/N90K/P208A/P217A/Q86G/Q94H/R138H/R169H/T345S)
Assay type: binding
Parameters: scale not given here
endpoint name: A2 Bind.
# output: bare number, no unit

| biopolymer sequence | A2 Bind. |
| --- | --- |
| SLCADARMYGV | 0.0140 |
| QLFHLCLII | 0.0390 |
| IISAVVGILL | 0.0120 |
| LLGRNSFRV | 0.0250 |
| YMLDLQPEV | 1.9000 |
| LLSTTEWQV | 0.0480 |

Ask | Give the measured A2 Bind. for "LLCLGWLWGM"
Reply | 0.0220

Ask | Hello, please tell me recorded A2 Bind. for this one: "ALLYKLDIV"
Reply | 0.0362
